- System: SF-295 CNS
- protocolSummary: NCI tumour cell line growth inhibition, 48 h
Items are presented alongside their recorded TGI.

compound | observedValue
COC(=O)c1cc(C#N)[nH]c1-c1ccsc1 | > 100 µM

Requested field: TGI. Item: O=C1C=C(Nc2ccccc2)c2ncccc2C1=O 2.6 µM

What about this compound? Cc1nc(Nc2nnc(-c3cc([N+](=O)[O-])cc([N+](=O)[O-])c3C)o2)sc1C(=O)CC(=O)Cc1nc2ccc(Cl)cc2[nH]c1=O > 100 µM

Record: CC(=O)OCc1nc(C#N)c(N)o1 > 100 µM

Next compound: C=C(Cl)C(C)(Cl)CCC(Cl)C(C)(C)Cl (configuration not stated) > 100 µM

Similarly, O=S(=O)(O)c1cc(S(=O)(=O)O)c2c(N=Nc3cccc4ccccc34)c(O)ccc2c1 ? > 100 µM

Request: COC(=O)c1cc(NC2OCC(OC(C)=O)C(OC(C)=O)C2OC(C)=O)nc(SC)c1C(=O)OC (configuration not stated) > 100 µM

Lookup CC(C)C1C(=O)N2CCCC2C2(O)OC(NC(=O)C3C=C4c5cccc6[nH]cc(c56)CC4N(C)C3)(C(C)C)C(=O)N12 (configuration not stated) 64.4 µM

Next compound: CCCC(OCC)(OCC)OCC > 100 µM
